B1: 3'-5' exoribonuclease 1, residues 65 to 114; numbered along this chain, Q8IV48 (parent)
chain: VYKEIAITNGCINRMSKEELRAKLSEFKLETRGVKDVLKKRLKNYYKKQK

# Variants of: B1
# protocol details: abundance fitness (aPCA) (normalised: wild type 0, dead -1); higher = more abundant; growth selection in yeast, the domain comes from the species named
# experimental parameters: Homo sapiens
result type: abundance fitness
// return a plain number; no unit text

mutant_name=A22L result_type="abundance fitness" measured_value=-0.052
mutant_name=D36P result_type="abundance fitness" measured_value=-0.17
mutant_name=S16E result_type="abundance fitness" measured_value=-0.746
mutant_name=S25Q result_type="abundance fitness" measured_value=-0.034
mutant_name=T31P result_type="abundance fitness" measured_value=-0.114

Name the reported abundance fitness value associated with the variant S25W
-0.188

Record request: abundance fitness value, item K39P
-0.979
